- target: T1, human CD71 extracellular domain (human, UniProt P02786 89-760)
- T1 construct: also called hCD71; human CD71-ECD
- T1 sequence (P02786 89-760): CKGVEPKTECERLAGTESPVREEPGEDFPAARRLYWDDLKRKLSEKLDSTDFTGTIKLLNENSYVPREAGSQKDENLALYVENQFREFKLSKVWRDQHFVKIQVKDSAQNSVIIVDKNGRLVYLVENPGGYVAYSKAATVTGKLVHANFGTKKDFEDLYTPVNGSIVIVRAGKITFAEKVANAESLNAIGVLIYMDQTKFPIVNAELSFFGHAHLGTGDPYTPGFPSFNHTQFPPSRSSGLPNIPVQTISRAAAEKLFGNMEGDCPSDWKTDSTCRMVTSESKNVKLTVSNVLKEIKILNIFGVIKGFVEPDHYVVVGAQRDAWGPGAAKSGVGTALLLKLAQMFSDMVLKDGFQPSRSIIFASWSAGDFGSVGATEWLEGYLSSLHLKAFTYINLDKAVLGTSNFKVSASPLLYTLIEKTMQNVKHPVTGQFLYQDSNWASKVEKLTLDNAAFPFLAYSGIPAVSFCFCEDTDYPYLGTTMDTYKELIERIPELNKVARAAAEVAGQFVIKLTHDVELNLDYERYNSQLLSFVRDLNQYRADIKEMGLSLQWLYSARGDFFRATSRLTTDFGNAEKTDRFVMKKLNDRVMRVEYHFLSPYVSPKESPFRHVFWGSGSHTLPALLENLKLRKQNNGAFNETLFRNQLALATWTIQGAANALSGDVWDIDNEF
- assay.notes: primary ELISA; further: test concentration or dose not given here
assay.endpoint: RLU (RLU)
A number alone suffices; assume RLU.

INSERT INTO assay_data (binder, measurement_unit, result_value) VALUES
  ('CD71-binding FN3 domain of SEQ ID NO: 140 (designed binder) MSLPAPKNLVVSRVTEDSARLSWTAPDAAFDSFFIGYLEPQPPGEAIHLYVPGSERSYDLTGLKPGTEYNVTIQGVKGGFPSMPLSAIFTT', 'RLU', '5.72e+06'),
  ('CD71-binding FN3 domain of SEQ ID NO: 173 (designed binder) MSLPAPKNLVVSRVTEDSARLSWTAPDAAFDSFEIAYQELSLWGEAIVLTVPGSERSYDLTGLKPGTEYYVHIGGVKGGIWSSPLVAHFTT', 'RLU', '4.41e+06'),
  ('CD71-binding FN3 domain of SEQ ID NO: 203 (designed binder) MSLPAPKNLVVSRVTEDFARLSWTAPDAAFDSFEIAYWEQSYTGEAIVLTVPGSERSYDLTGLKPGTEYFVHIGGVKGGVWSTPLSAIFTT', 'RLU', '2.25e+06'),
  ('CD71-binding FN3 domain of SEQ ID NO: 191 (designed binder) MSLPAPKNLVVSRVTEDSARLSWTAPDAAFDSFEIGYFENLYLGEAIVLTVPGSERSYDLAGLKPGTEYWVQIGGVKGGNWSAPLSAIFTT', 'RLU', '4.2e+06'),
  ('CD71-binding FN3 domain of SEQ ID NO: 213 (designed binder) MSLPAPKNLVVSRVTEDSARLSWTAPDAAFDSFEIGYFENLYLGEAIVLTVPGSERSYDLTGLKPGTEYWVQIGGAKGGNWSAPLSAIFTT', 'RLU', '2.46e+06');

Data request, read-out RLU, for CD71-binding FN3 domain of SEQ ID NO: 209 (designed binder) MSLPAPKNLVVSRVTEDSARLSWTAPDAAFDSFEIAYFERTWFGEAIVLTVPGSERSYDLTGLKPGTEYWVQIGGVKGGDWSRPLSAIFTT 4.27e+06

Similarly, CD71-binding FN3 domain of SEQ ID NO: 178 (designed binder) MGSLPAPKNLVVSRVTEDSARLSWTAPDAAFDSFFIGYLEPQPPGEAISLYVPGSERSYDLTGLKPGTEYNVTIQGVKGGFPSDPLVAHFTT ? 7.01e+06

One more binder: CD71-binding FN3 domain of SEQ ID NO: 134 (designed binder) MSLPAPKNLVVSRVTEDSARLSWTAPDAAFDSFDINYWENESGGEAIALFVPGSERSYDLTGLKPGTEYLVTIAGVKGGWWSKPLYATFTT 4.52e+06

What do we get for CD71-binding FN3 domain of SEQ ID NO: 127 (designed binder) MSLPAPKNLVVSRVTEDSARLSWTAPDAAFDSFFIGYLEPQPPGEAITLLVPGSERSYDLTGLKPGTEYNVTIQGVKGGFPSGPLQASFTT ? 4.73e+06

Also CD71-binding FN3 domain of SEQ ID NO: 128 (designed binder) MSSLPAPKNLVVSRVTEDSARLSWTAPDAAFDSFEIGYFENLYLGEAIVLTVPGSERSYDLTGLKPGTEYWVQIGGVKGGNWSAPLSAIFTT ? 4.62e+06

Another: CD71-binding FN3 domain of SEQ ID NO: 206 (designed binder) MSLPAPKNLVASRVTEDSARLSWTAPDAAFDSFEIGYFENLYLGEAIVLTVPGSERSYDLTGLKPGTEYWVQIGGVKGGNWSAPLSAIFTT 3.9e+06

Try this binder too: CD71-binding FN3 domain of SEQ ID NO: 141 (designed binder) MSLPAPKNLVVSRVTEDSARLSWTAPDAAFDSFEIGYFENLYLGEAIVLTVPGSERSYDLTGLKPGTEYWVQIGGVKGGNWSAPLSAYFTT 4.22e+06

Same read-out for CD71-binding FN3 domain of SEQ ID NO: 120 (designed binder) MSLPAPKNLVVSRVTEDSARLSWTAPDAAFDSFEIAYQELSLWGEAIVLTVPGSERSYDLTGLKPGTEYWVQIGGVKGGEWSAPLSAIFTT ? 4.26e+06

Let us now turn to CD71-binding FN3 domain of SEQ ID NO: 131 (designed binder) MSLPAPKNLVVSRVTEDSARLSWTAPDAAFDSFEIAYFENDWAGEAIVLTVPGSERSYDLTGLKPGTEYVVFIGGVKGGDFSPPLSAIFTT 3.35e+06

And then CD71-binding FN3 domain of SEQ ID NO: 204 (designed binder) MSLPAPKNLVVSRVTEDSARLSWTAPDAAFDSFLIQYDEWPTYGEAIVLTVPGSERSYDLTGLKPGTEYLVEIVGVKGGNLSGPLSAIFTT , what is it? 4.09e+06

Also check CD71-binding FN3 domain of SEQ ID NO: 139 (designed binder) MSLPAPKNLVVSRVTEDSARLSWTAPDAAFDSFEIGYFENLYLGEAIVLTVPGSERSYDLTGLKPGTEYWVQIGGVKGGAYSTPLSAIFTT 3.7e+06

Param item: CD71-binding FN3 domain of SEQ ID NO: 155 (designed binder) MSLPAPENLVVSRVTEDSARLSWTAPDAAFDSFEIGYFENLYLGEAIVLTVPGSERSYDLTGLKPGTEYWVQIGGVKGGVWSRPLSAIFTT 3.55e+06

# repeat for CD71-binding FN3 domain of SEQ ID NO: 208 (designed binder) MSLPAPKNLVVSRVTEDSARLSWTAPDAAFDSFFIGYFENLYLGEAIVLTVPGSERSYDLTGLKPGTEYWVQIGGVKGGNWSAPLSAIFTT 4.06e+06
